# method: PBS solubility screen
# Assay type: physicochemical
# conditions: Solubility limit

{"compound": "C/C(=N\\NC(=N)N)c1sc(-c2ccc(-c3ccccc3)cc2)nc1C [Compound 1b, reference compound]", "solubility at 2 h, µM": 2.2}
